- TARGET_ENTITY: aggrecanase-1 (Homo sapiens, UniProt O75173)
- Sequence (O75173 213-837, species assumed): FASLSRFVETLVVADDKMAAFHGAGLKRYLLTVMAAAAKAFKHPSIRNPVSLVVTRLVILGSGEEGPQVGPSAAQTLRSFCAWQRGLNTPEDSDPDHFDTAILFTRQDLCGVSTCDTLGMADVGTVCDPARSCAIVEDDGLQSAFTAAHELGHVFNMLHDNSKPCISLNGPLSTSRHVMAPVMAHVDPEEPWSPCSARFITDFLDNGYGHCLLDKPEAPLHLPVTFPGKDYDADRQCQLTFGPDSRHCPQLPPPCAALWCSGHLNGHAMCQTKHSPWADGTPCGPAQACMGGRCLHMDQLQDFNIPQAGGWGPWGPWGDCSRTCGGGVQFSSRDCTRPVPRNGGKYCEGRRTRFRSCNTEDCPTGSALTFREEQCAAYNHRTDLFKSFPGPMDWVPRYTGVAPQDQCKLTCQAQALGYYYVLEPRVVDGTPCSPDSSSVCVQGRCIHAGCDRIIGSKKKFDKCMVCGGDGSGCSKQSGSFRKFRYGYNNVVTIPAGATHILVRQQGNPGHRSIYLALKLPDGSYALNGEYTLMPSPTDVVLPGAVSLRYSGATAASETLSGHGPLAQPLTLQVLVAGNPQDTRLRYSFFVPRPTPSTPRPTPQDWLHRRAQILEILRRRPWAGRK
- EXPERIMENT: Aggrecanase-1 inhibitory action (Particle Assay, GAG release from aggrecan-containing polyacrylamide particles)
- Format: biochemical
- REPORTED_CONDITIONS: Experimental Example 1; read-out: IC50 AG1
pIC50: −log10 of the molar value.
REPORTED_METRIC: pIC50

Answered examples (8):
(Q) If you can, please state the reported pIC50 value of C[C@]1(c2ccccc2)C[C@@]1(NS(=O)(=O)c1ccc(-c2cccc(OCCCO)c2)s1)C(=O)O .
(A) ≤ 6.00

(Q) Fill in: pIC50 of O=C1NCc2ccccc2C2CC12NS(=O)(=O)c1ccc(-c2ccc(Cl)cc2)s1 (centres unmarked) is ___
(A) ≤ 6.00

(Q) What value of measured pIC50 is listed for O=C(O)CSCC1(c2ccccc2)CC1(NS(=O)(=O)c1ccc(-c2ccc(Cl)cc2)s1)C(=O)O (centres unmarked) ?
(A) > 7.00

(Q) Please give the measured pIC50 for this compound: C[C@]1(c2ccccc2)C[C@@]1(NS(=O)(=O)c1ccc(-c2cc(C(F)F)on2)s1)C(=O)O
(A) > 7.00

(Q) Consider the compound shown here: O=C(O)C1(NS(=O)(=O)c2ccc(-c3ccc(Cl)cc3)s2)CC1(CNCc1nccs1)c1ccccc1 (centres unmarked) What is its recorded pIC50?
(A) > 6.00

(Q) Param item = CC1C(NS(=O)(=O)c2ccc(-c3cc(C(F)(F)F)on3)s2)(C(=O)O)C1(C)c1ccccc1 (centres unmarked) [Example 2-598] ; retrieve measured pIC50.
(A) > 7.00

(Q) Which pIC50 value belongs to C[C@]1(c2ccccc2)C[C@@]1(NS(=O)(=O)c1ccc(/C=C/C(F)(F)F)s1)C(=O)O ?
(A) ≤ 6.00

(Q) Looking for the measured pIC50 of CC1[C@H](c2ccccc2)[C@]1(NS(=O)(=O)c1ccc(-c2cc(C(C)(F)F)on2)s1)C(=O)O (some centres unmarked) , can you help?
(A) > 7.00

New cases:
(Q) For the compound shown here, O=C(O)C1(NS(=O)(=O)c2ccc(-c3cc(C(F)(F)F)on3)s2)CC1c1cccc(CCO)c1 (centres unmarked) , give the reported pIC50.
(A) > 7.00

(Q) What value of measured pIC50 is listed for O=C(O)C1(NS(=O)(=O)c2ccc(-c3ccc(Cl)cc3)s2)C2CCC(O)c3ccccc3C21 (centres unmarked) [Example 2-411] ?
(A) > 7.00

(Q) Sample C[C@]1(c2ccccc2)C[C@@]1(NS(=O)(=O)c1ccc(-c2ccc(F)c(Cl)c2)s1)C(=O)O — what was its pIC50?
(A) > 7.00

(Q) Which value of pIC50 has been reported for CC(C)C(=O)NCCCC1(c2ccccc2)CC1(NS(=O)(=O)c1ccc(-c2ccc(Cl)cc2)s1)C(=O)O (centres unmarked) in the records?
(A) > 7.00

(Q) pIC50 lookup needed for C[C@]1(c2ccccc2)C[C@@]1(NS(=O)(=O)c1ccc(-c2ccc(Cl)c(CO)c2)s1)C(=O)O , thanks.
(A) > 7.00

(Q) Which pIC50 is reported for this compound? CC(=O)c1ccc(S(=O)(=O)N[C@@]2(C(=O)O)C(C)[C@@H]2c2ccccc2)s1 (some centres unmarked)
(A) ≤ 5.00

(Q) What does the data say about its pIC50? Entry: O=C(NO)C1(NS(=O)(=O)c2ccc(-c3ccc(Cl)cc3)s2)C2CCc3ccccc3C21 (centres unmarked)
(A) > 6.00

(Q) Need pIC50 of C[C@]1(c2cccc(Cl)c2)C[C@@]1(NS(=O)(=O)c1ccc(-c2cc(C(F)(F)F)on2)s1)C(=O)O , thanks.
(A) > 7.00

(Q) What does the record list as pIC50 for CC1[C@H](c2ccccc2)[C@]1(NS(=O)(=O)N1CCc2ccccc2C1)C(=O)O (some centres unmarked) ?
(A) ≤ 6.00

(Q) Could you tell me which pIC50 is on file for CC1[C@H](c2ccccc2)[C@]1(NS(=O)(=O)c1cn2cc(Cn3cc(Cl)cn3)nc2s1)C(=O)O (some centres unmarked) ?
(A) ≤ 6.00

Hello, the source for this data is patent US20080261994A1, in case you need it.
